molecular target: Human TDO (hTDO)-transfected CHO-K1 cells (Homo sapiens (Human)); assay: CHO-K1 cell based TDO assay; conditions: hTDO cellular assay
Sequence (P48775 whole entry): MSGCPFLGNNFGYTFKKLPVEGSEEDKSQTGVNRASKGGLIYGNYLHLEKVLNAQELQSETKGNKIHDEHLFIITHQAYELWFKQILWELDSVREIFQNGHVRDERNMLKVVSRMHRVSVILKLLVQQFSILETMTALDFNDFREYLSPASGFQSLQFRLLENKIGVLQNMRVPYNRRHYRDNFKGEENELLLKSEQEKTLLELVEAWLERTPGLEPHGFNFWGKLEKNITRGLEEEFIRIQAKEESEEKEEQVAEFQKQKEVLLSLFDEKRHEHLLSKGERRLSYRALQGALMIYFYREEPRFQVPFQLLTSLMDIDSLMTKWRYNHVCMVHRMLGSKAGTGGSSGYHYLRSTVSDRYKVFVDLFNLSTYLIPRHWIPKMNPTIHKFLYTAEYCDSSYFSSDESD
pIC50: −log10 of the molar value.
Listed here are molecules together with their documented pIC50.

As a guide, the following entries are already answered.
COC(=O)Nc1oc2cnccc2c1Nc1ccc(F)c(Cl)c1 : < 5.70
Nc1oc2cnc(F)cc2c1Nc1ccc(F)cc1 : > 6.30
CNC(=O)c1cc(-c2nccc3c(Nc4ccc(F)c(Cl)c4)c(N)oc23)ccn1 : 5.70 to 6.30
CC(C)Oc1cccc(Nc2c(N)oc3cnccc23)c1 : < 5.70
Cc1cc(-c2nccc3c(Nc4cc(Cl)ccc4F)c(N)oc23)ccn1 : < 5.70
COc1cc2c(Nc3ccc(F)c(Cl)c3)c(N)oc2c(Br)n1 : < 5.70
CNC(=O)c1cc(-c2nccc3c(Nc4ccc(F)c(F)c4)c(N)oc23)ccn1 : 5.70 to 6.30
Cc1cc(-c2nccc3c(Nc4cccc(C(F)(F)F)c4)c(N)oc23)ccn1 : 5.70 to 6.30

Data point: CCOC(=O)Nc1oc2c(-c3ccnc(C)c3)nccc2c1N(C(=O)OCC)c1ccc(F)c(F)c1 ; pIC50 = < 5.70
